# SYSTEM NAME: Recombinant human HSD17B13 enzyme (Homo sapiens)
# Sequence (Q7Z5P4 20-300): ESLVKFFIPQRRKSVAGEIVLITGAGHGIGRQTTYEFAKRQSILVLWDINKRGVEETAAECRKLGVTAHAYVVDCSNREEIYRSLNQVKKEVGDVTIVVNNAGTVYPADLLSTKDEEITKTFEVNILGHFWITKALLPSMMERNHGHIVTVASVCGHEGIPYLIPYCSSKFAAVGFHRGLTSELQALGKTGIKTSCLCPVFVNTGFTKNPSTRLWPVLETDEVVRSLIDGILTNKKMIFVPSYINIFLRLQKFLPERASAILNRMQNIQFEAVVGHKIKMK
# METHOD: HSD17b13 NAD(P)H-Glo biochemical assay
# CONDITION CONTEXT: 50 uM estradiol, 1 mM NAD+, NAD(P)H-Glo luminescence; read-out: HSD17β13 IC50
Known IC50 of a selection of compounds

[
  {
    "COMPOUND": "Cn1nc(-c2cc(C(F)(F)F)c(F)c(O)c2F)c2cnc(N3CCOC(C)(C)C3)nc21 [Compound 18.103]",
    "SYSTEM NAME": "Recombinant human HSD17B13 enzyme (Homo sapiens)",
    "IC50": "< 100 nM"
  },
  {
    "COMPOUND": "CN(c1nc2c(cc1F)c(-c1cc(C(F)(F)F)c(F)c(O)c1F)nn2C)C1CCOCC1 [Compound 9.103]",
    "SYSTEM NAME": "Recombinant human HSD17B13 enzyme (Homo sapiens)",
    "IC50": "< 100 nM"
  },
  {
    "COMPOUND": "Cn1nc(-c2cc(C(F)(F)F)c(F)c(O)c2F)c2cnc(N3CCC(N4CCOCC4)CC3)nc21 [Compound 18.60]",
    "SYSTEM NAME": "Recombinant human HSD17B13 enzyme (Homo sapiens)",
    "IC50": "100 to 1000 nM"
  }
]

# next compound below
// field: IC50; key: Cn1nc(-c2cc(C(F)(F)F)c(F)c(O)c2F)c2cnc(N3CCOC4(CCOCC4)C3)nc21 [Compound 18.95] ; value = < 100 nM
